- system_under_test: KRAS Q61H (Homo sapiens (Human), UniProt P01116+P62937, Q61H)
- Sequence (P01116 other isoform, or with tags, fused parts or gaps Q61H): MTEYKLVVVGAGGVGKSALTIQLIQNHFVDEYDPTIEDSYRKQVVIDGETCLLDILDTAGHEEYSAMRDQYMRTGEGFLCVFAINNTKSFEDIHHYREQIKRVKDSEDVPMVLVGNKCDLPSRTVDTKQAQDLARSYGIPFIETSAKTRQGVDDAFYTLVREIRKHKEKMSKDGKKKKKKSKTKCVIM
- Sequence (P62937 whole entry): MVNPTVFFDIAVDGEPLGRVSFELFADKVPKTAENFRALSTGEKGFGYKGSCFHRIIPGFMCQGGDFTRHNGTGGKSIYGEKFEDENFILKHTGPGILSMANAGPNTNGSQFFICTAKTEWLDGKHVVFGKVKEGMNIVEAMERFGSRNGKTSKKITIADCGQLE
- protocol_details: Ras-Raf disruption/FRET/MOA assay (BRAF RBD, Cyclophilin A)
- Assay type: biochemical
observable: IC50

Please review the entries below; each comes with its answer.
CCn1c(-c2cccnc2[C@H](C)OC)c2c3cc(ccc31)-c1csc(n1)C[C@H](NC(=O)[C@@H]1CCO1)C(=O)N1CCC[C@H](N1)C(=O)OCC(C)(C)C2 ... 100 to 1000 nM
CCn1c(-c2cccnc2[C@H](C)OC)c2c3cc(ccc31)-c1csc(n1)C[C@H](NC(=O)[C@H](C(C)C)N1CCC3(COC3)C1)C(=O)N1CCC[C@H](N1)C(=O)OCC(C)(C)C2 ... 10 to 100 nM
CCn1c(-c2cccnc2[C@H](C)OC)c2c3cc(ccc31)-c1csc(n1)C[C@H](NC(=O)[C@H](C(C)C)N(C)C(=O)N1CC([C@H](C)COC)C1)C(=O)N1CCC[C@H](N1)C(=O)OCC(C)(C)C2 ... 10 to 100 nM

Data request, read-out IC50, for CCn1c(-c2cccnc2[C@H](C)OC)c2c3cc(ccc31)-c1csc(n1)C[C@H](NC(=O)[C@H](C(C)C)N1C[C@@H](c3ccccc3)CC1=O)C(=O)N1CCC[C@H](N1)C(=O)OCC(C)(C)C2 (single isomer, unassigned) 100 to 1000 nM

I am curious: what IC50 value has been reported for "CCn1c(-c2cccnc2[C@H](C)OC)c2c3cc(ccc31)-c1csc(n1)C[C@H](NC(=O)[C@H](C(C)C)N(C)C(=O)N1CC3(CCN(C)C3)C1)C(=O)N1CCC[C@H](N1)C(=O)OCC(C)(C)C2" ? 100 to 1000 nM

====

Listed here: items and their measured IC50.
- system_under_test: KRAS G12C (Homo sapiens (Human), UniProt P01116+P62937, G12C)
- Sequence (P01116-2 other isoform, or with tags, fused parts or gaps G12C): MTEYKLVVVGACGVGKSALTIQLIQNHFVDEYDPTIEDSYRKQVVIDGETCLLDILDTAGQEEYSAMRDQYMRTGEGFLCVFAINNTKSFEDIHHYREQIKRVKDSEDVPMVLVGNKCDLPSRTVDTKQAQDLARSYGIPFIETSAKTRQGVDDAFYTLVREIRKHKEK
- Sequence (P62937 whole entry): as the sequence (P62937 whole entry) above
- protocol_details: Ras-Raf disruption/FRET/MOA assay (BRAF RBD, Cyclophilin A)
- Assay type: biochemical
- reported_conditions: read-out: KRAS G12C FRET IC50

Answered examples (4):
CCn1c(-c2cnccc2COC)c2c3cc(ccc31)-c1cc(O)cc(c1)C[C@H](NC(=O)[C@H](C(C)C)N(C)C(=O)c1ncc[nH]1)C(=O)N1CCC[C@H](N1)C(=O)OCC(C)(C)C2 [Compound A64] ... 100 to 1000 nM
CCn1c(-c2cnccc2COC)c2c3cc(ccc31)-c1cc(O)cc(c1)C[C@H](NC(=O)[C@H](C(C)C)N(C)C(=O)C1CN(C)C1)C(=O)N1CCC[C@H](N1)C(=O)OCC(C)(C)C2 [Compound A88] ... 100 to 1000 nM
CCn1c(-c2cccnc2[C@H](C)OC)c2c3cc(ccc31)-c1cc(O)cc(c1)C[C@H](NC(=O)[C@H](C(C)C)N(C)C(=O)[C@H]1[C@@H](N)[C@@H]3CC[C@H]1O3)C(=O)N1CCC[C@H](N1)C(=O)OCC(C)(C)C2 [Compound A421] ... 100 to 1000 nM
CCn1c(-c2cccnc2[C@H](C)OC)c2c3cc(ccc31)-c1csc(n1)C[C@H](NC(=O)N1CC[C@@H]1COC)C(=O)N1CCC[C@H](N1)C(=O)OCC(C)(C)C2 [Compound A264] ... 10 to 100 nM

Now for another entry.
Could you share which IC50 value was measured for CCn1c(-c2cccnc2COC)c2c3cc(ccc31)-c1cc(O)cc(c1)C[C@H](NC(=O)[C@H](C(C)C)N(C)C(C)=O)C(=O)N1CCC[C@H](N1)C(=O)OCC(C)(C)C2 [Compound A55] ? 1000 to 10000 nM
